Source of measurements: PubChem BioAssay AID2253

- Test system: THP-1 viability, CellTiter-Glo luminescence, 72 h
- procedureSummary: THP-1 cell cytotoxicity, dose response, cytotoxicity control for Salmonella PhoP regulon inhibitors, S. typhimurium screen hits (AID 2253)
pEC50: −log10 of the molar value.
Each entry below carries its recorded pEC50.

| compound | pEC50 |
| --- | --- |
| COC(=O)c1c(C)oc2ccc(NS(=O)(=O)c3cccs3)cc12 | 4.32 |
| Clc1ccc(-c2csc3ncnc(N4CCc5ccccc5C4)c23)cc1 | 4.36 |
| CC(C)[C@@H]1CC[C@@H](C)C[C@H]1OC(=O)C[n+]1cc(-c2ccc(Cl)cc2)n2c1CCCCC2 | 5.64 |
| S=C(Nc1ccccc1)Nc1nc2ccccc2n1CCOc1ccc(Cl)cc1 | 4.82 |
| Clc1ccc(OCCCNCc2ccccc2)c(Br)c1 | 4.94 |
| Oc1cccc(Nc2nc(NCC3CCCO3)c3ccccc3n2)c1 (configuration not stated) | 5.65 |
| CCCCCCCCCC[N+](C)(C)CC/C=C1/c2ccccc2Sc2ccc(Cl)cc21 | 5.78 |
| CCc1ccc(Nc2nc(N)nc(CSc3nc4ccccc4s3)n2)cc1 | 4.47 |
| Oc1cccc(/C=N/Nc2ccc(Cl)nn2)c1O | 6.18 |
| c1ccc(-c2cccc(-c3ccccn3)n2)nc1 | 6.35 |
| Cc1cc(C)cc(CC(Cc2nc3ccccc3[nH]2)c2nc3ccccc3[nH]2)c1 (configuration not stated) | 4.93 |
| Oc1cccc2ccc[n+](CC(O)Cn3c4ccccc4c4ccccc43)c12 (configuration not stated) | 4.95 |
| Cc1ccc(C(c2cc(Cl)c3cccnc3c2O)N2CCN(C)CC2)cc1 (configuration not stated) | 5.72 |
| CCOC(=O)C1=Nc2ccccc2C1=[N+]=[N-] | 4.57 |
| NCCc1c(-c2ccccc2)n(-c2ccccc2)c2ccccc12 | 5.32 |
| O=C(C[n+]1cc(-c2ccc(Cl)cc2)n2c1CCC2)Nc1nc(-c2ccccc2)cs1 | 4.36 |
| NNC(=O)c1cc2ccccc2cc1O | 4.92 |
| CC[C@@H](C)[C@H](CNC)NC[C@@H](Cc1cccc2ccccc12)NCCc1cccc(C(F)(F)F)c1 | 5.15 |
| Cc1[nH]c2ccccc2c1/C=N/Nc1ccc(F)cc1F | 4.31 |
| Clc1ccc(Nc2ncnc3c2cnn3-c2ccccc2)cc1 | 4.52 |
| O=C(Cc1n[nH]c(=O)c2ccccc12)OCC(=O)c1ccc2c(c1)OCCO2 | 5.87 |
| Cc1nc(N)nc(N)c1/C=C/C(C)(C)c1ccc(Cl)cc1 | > 7.00 |

----------
- Test system: THP-1 viability, CellTiter-Glo luminescence, 72 h
- procedureSummary: THP-1 cell cytotoxicity, dose response, cytotoxicity control for Salmonella PhoP regulon inhibitors, S. typhimurium screen hits (AID 2253)
pEC50: −log10 of the molar value.
Please mark true if the recorded pEC50 is equal to or greater than 5, and false if it falls below.

| compound | cat |
| --- | --- |
| CCCCCCCCCCOC(=O)Cn1c(COc2ccc(C)cc2)[n+](C)c2ccccc21 | true |
| O=C(N/N=C/C1C(c2ccccc2)C1(Cl)Cl)c1cccc(Cl)c1 (stereo not given) | false |
| Nc1nonc1C(=O)NCCN=Cc1cc(Cc2ccccc2)cc(Br)c1O | false |
| CN(C)c1ccc(/C=C/c2ccc3c4ccccc4ccc3[n+]2-c2ccccc2)cc1 | true |
| Cc1cc2cc(CCNC(=O)c3cccs3)c(=O)[nH]c2cc1C | false |
| Oc1ccc(CN2CCCc3ccccc32)c2cccnc12 | true |
| CN(C)CCCN(C(=O)CCc1ccccc1)c1nc2ccc(Cl)cc2s1 | false |
| C#CCOCCOCCOCCNc1nc(N2CCN(C(=O)CCCCCCCCCCNC(=O)[C@H]([C@@H](C)CC)n3cc(CCCCN=C(N)N)nn3)CC2)nc(N2CCN(C(=O)CCCCCCCCCCNC(=O)[C@H]([C@@H](C)CC)n3cc(CCCCN=C(N)N)nn3)CC2)n1 | true |
| CN(C)c1ccc(O)c2c1CC1CC3[C@@H](N(C)C)C(=O)C(C(N)=O)=C(O)[C@]3(O)C(=O)C1=C2O (stereo not given in full) | false |
| Clc1ccc(-c2c[n+](Cc3ccc(Cl)cc3Cl)c3n2CCCCC3)cc1 | true |
| C(=C\c1ccccc1)/C=N/Nc1nc2ccccc2[nH]1 | false |
| COc1cccc2[nH]c3c(N4CCN(Cc5ccc6c(c5)OCO6)CC4)ncnc3c12 | false |
